Data provenance: paper PMC2756588

- Target: T1, Pin3, Q06449
- T1 sequence (Q06449 53-122, looked up): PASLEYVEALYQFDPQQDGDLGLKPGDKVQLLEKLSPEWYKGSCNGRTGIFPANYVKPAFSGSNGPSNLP
- Test: SPOT array
- Assay Conditions: median of control spots 2171
Result Type: SPOT intensity

>  <Binder>
TPTSGPPLLPPRNTM

>  <Measured>
66

$$$$

I: RVRKTHVPASKRPSG
II: NVLRKILEIPLHSFS
Quick one: lower SPOT intensity, I or II ? # reply format: chosen label
II

I: MFLISPPASPPPEFD
II: LRWRHKFFLPAIAAI
III: LYEAMPPTLPHRDWK
IV: VNIPSPSSSPPPIPK
rank_up(items): orders items by reported SPOT intensity in ascending numerical order. Write the labels, ordered according to the request.
IV, II, III, I
(IV: 0, II: 4, III: 19, I: 65)
